target: hFZD7 CRD-Fc (human, UniProt O75084 33-185); assay: spot phage ELISA
Measurement type: signal:noise ratio

INSERT INTO results (binder, observed_value) VALUES
  ('DTDLHQWCLWFT [SEQ ID NO 6]', 30.2),
  ('TYFDDICNLILPWANP [SEQ ID NO 2]', 27.5),
  ('PPNVHEGCWSMFPW [SEQ ID NO 12]', 28.1),
  ('FWFDFWFG [SEQ ID NO 31]', 4.2),
  ('LSSGKKVSSYWFNFWF [SEQ ID NO 30]', 3.5);

Every entry's value here was drawn from patent US20190359653A1.
